Recorded values, source BigSolDB 2.1.

- conditionDetails: in DMF, 318.15 K
measurementLabel: solubility (mole fraction)

smiles	measValue
c1ccc2ccccc2c1	0.465

---

- conditionDetails: in isobutyl acetate, 313.2 K

smiles	solubility (mole fraction)
c1ccc2ccccc2c1	0.433

---

- conditionDetails: in NMP, 288.17 K
measurementLabel: solubility (mole fraction)

smiles	measurementLabel	measValue
c1ccc2ccccc2c1	solubility (mole fraction)	0.307

---

- conditionDetails: in isobutyl acetate, 283.2 K
measurementLabel: solubility (mole fraction)

smiles	measValue
c1ccc2ccccc2c1	0.205

---

- conditionDetails: in NMP, 278.18 K

smiles	solubility (mole fraction)
c1ccc2ccccc2c1	0.269

---

- conditionDetails: in n-butyric acid, 323.28 K

smiles	solubility (mole fraction)
c1ccc2ccccc2c1	0.34

---

- conditionDetails: in acetone, 298.35 K
measurementLabel: solubility (mole fraction)

smiles	measValue
c1ccc2ccccc2c1	0.226

---

- conditionDetails: in DMF, 288.15 K
measurementLabel: solubility (mole fraction)

smiles	measValue
c1ccc2ccccc2c1	0.215

---

- conditionDetails: in THF, 303.2 K

smiles	solubility (mole fraction)
c1ccc2ccccc2c1	0.385

---

- conditionDetails: in n-butyric acid, 283.27 K

smiles	solubility (mole fraction)
c1ccc2ccccc2c1	0.0952

---

- conditionDetails: in n-butyric acid, 293.2 K

smiles	solubility (mole fraction)
c1ccc2ccccc2c1	0.129

---

- conditionDetails: in ethyl acetate, 313.23 K

smiles	solubility (mole fraction)
c1ccc2ccccc2c1	0.406

---

- conditionDetails: in ethyl acetate, 288.21 K

smiles	solubility (mole fraction)
c1ccc2ccccc2c1	0.217

---

- conditionDetails: in acetone, 293.25 K

smiles	solubility (mole fraction)
c1ccc2ccccc2c1	0.194

---

- conditionDetails: in n-butyric acid, 308.2 K
measurementLabel: solubility (mole fraction)

smiles	measurementLabel	measValue
c1ccc2ccccc2c1	solubility (mole fraction)	0.215

---

- conditionDetails: in acetone, 288.05 K
measurementLabel: solubility (mole fraction)

smiles	measValue
c1ccc2ccccc2c1	0.171

---

- conditionDetails: in DMF, 313.15 K
measurementLabel: solubility (mole fraction)

smiles	measurementLabel	measValue
c1ccc2ccccc2c1	solubility (mole fraction)	0.406

---

- conditionDetails: in THF, 288.25 K

smiles	solubility (mole fraction)
c1ccc2ccccc2c1	0.292

---

- conditionDetails: in n-butyric acid, 278.17 K
measurementLabel: solubility (mole fraction)

smiles	measValue
c1ccc2ccccc2c1	0.0834

---

- conditionDetails: in isobutyl acetate, 293.23 K

smiles	solubility (mole fraction)
c1ccc2ccccc2c1	0.259

---

- conditionDetails: in n-butyric acid, 288.45 K
measurementLabel: solubility (mole fraction)

smiles	measValue
c1ccc2ccccc2c1	0.113

---

- conditionDetails: in isobutyl acetate, 303.23 K

smiles	solubility (mole fraction)
c1ccc2ccccc2c1	0.335

---

- conditionDetails: in ethyl acetate, 303.2 K

smiles	solubility (mole fraction)
c1ccc2ccccc2c1	0.314

---

- conditionDetails: in THF, 284.35 K
measurementLabel: solubility (mole fraction)

smiles	measurementLabel	measValue
c1ccc2ccccc2c1	solubility (mole fraction)	0.273

---

- conditionDetails: in ethyl acetate, 298.25 K

smiles	solubility (mole fraction)
c1ccc2ccccc2c1	0.276

---

- conditionDetails: in acetone, 313.05 K

smiles	solubility (mole fraction)
c1ccc2ccccc2c1	0.361

---

- conditionDetails: in NMP, 293.2 K

smiles	solubility (mole fraction)
c1ccc2ccccc2c1	0.336
